As shown below, each of these compounds has a reported melting point value.
Write the value in °C as a bare number.

Known melting point results, listed for orientation:
CCCCC1=NC2(CCCC2)C(=O)N1Cc1ccc(-c2cc(OCC(=O)O)ccc2CCC)cc1 ... 76
CCCCC1=NC2(CCCCC2)C(=O)N1Cc1ccc(-c2cc(OC(C)(C)C(=O)O)ccc2F)cc1 ... 72
CCCCC1=NC2(CCCC2)C(=O)N1Cc1ccc(-c2cc(OC(CC)C(=O)O)ccc2CCC)cc1 (stereo not shown) ... 74
CCCCC1=NC2(CCCC2)C(=O)N1Cc1ccc(-c2cccc(OC(C)(C)C(=O)O)c2)c(OC)c1 ... 157
CCCCC1=NC2(CCCC2)C(=O)N1Cc1ccc(-c2cccc(OC(CC)c3nnn[nH]3)c2)cc1 (stereo not shown) ... 76
CCCCC1=NC2(CCCCC2)C(=O)N1Cc1ccc(-c2cccc(OC3(C(=O)O)CCC3)c2)cc1 ... 184
CCCCC1=NC2(CCCCC2)C(=O)N1Cc1ccc(-c2cccc(OC(C)(C)C(=O)O)c2)c(C)c1 ... 140

Next up:
Query block: For CCCCC1=NC2(CCCC2)C(=O)N1Cc1ccc(-c2ccc(CCC)c(OC(C)(C)C(=O)O)c2)cc1 , what is its reported melting point?
Result block: 74
